Could you please report measured ED50 (50% decrease in weight of the thymuses) for the items listed next?
System: thymus
Experiment: Systemic activity after local administration: effect on the weight of the thymus
Assay type: in vivo, male Sprague-Dawley I.O.P.S. rats
Settings: rat, in vivo, 8640 min
Procedure: The pharmacological activity of the products described in the invention was tested in the rat using a technique similar to that described by C. A. Winter and C. C. Porter (J. Am. Pharm. Ass. 1957, 46, 9, pages 515-519). […] The pellets to be implanted weigh from 35 to 40 mg and are prepared from balls of dental cotton wool. Before being inserted, each pellet is weighed and impregnated with the precise quantity of the product which is to be studied, dissolved in 0.2 ml of chloroform. […]

Solved cases (5 shown):
- compound: "CC(=O)SCC(=O)[C@@]1(OC(=O)c2ccccc2)CC[C@H]2[C@@H]3C[C@H](C)C4=CC(=O)C=C[C@]4(C)[C@H]3[C@@H](O)C[C@@]21C"
  test-result: "> 5 mg/pellet"
- compound: "CCCCC(=O)O[C@]1(C(=O)CSC(=O)CCCC)CC[C@H]2[C@@H]3C[C@H](C)C4=CC(=O)C=C[C@]4(C)[C@H]3[C@@H](O)C[C@@]21C"
  test-result: "> 1 mg/pellet"
- compound: "CCC(=O)SCC(=O)C1(OC(C)=O)C(C)CC2C3CCC4=CC(=O)C=CC4(C)C3(F)C(O)CC21C (stereo not drawn)"
  test-result: "1.70 mg/pellet"
- compound: "C=C1C[C@H]2[C@@H]3CCC4=CC(=O)C=C[C@]4(C)[C@H]3[C@@H](O)C[C@]2(C)[C@@]1(OC(=O)CC)C(=O)CSC(=O)CC"
  test-result: "7 mg/pellet"
- compound: "CCCCC(=O)SCC(=O)C1(OC(=O)CC)C(C)CC2C3CCC4=CC(=O)C=CC4(C)C3(Cl)C(O)CC21C (stereo not drawn)"
  test-result: "> 1 mg/pellet"

Now look at this entry.
Provide value of ED50 (50% decrease in weight of the thymuses) for this record tested with thymus: `CCC(=O)O[C@]1(C(=O)CSC(=O)CC)CC[C@H]2[C@@H]3C[C@H](C)C4=CC(=O)C=C[C@]4(C)[C@H]3[C@@H](O)C[C@@]21C`
> 1 mg/pellet

====

Would you kindly list ED50 (50% decrease in weight of the thymuses) for each of these compounds?
Tested on: thymus
Assay: Systemic activity after local administration: effect on the weight of the thymus
Format: in vivo, male Sprague-Dawley I.O.P.S. rats
Settings: rat, in vivo, 8640 min

Take a look at these entries with their results.
- compound: "CCCC(=O)O[C@]1(C(=O)CSC(C)=O)CC[C@H]2[C@@H]3CCC4=CC(=O)C=C[C@]4(C)[C@H]3C(=O)C[C@@]21C [Ex. 3]"
  test-result: "> 5 mg/pellet"
- compound: "CC(=O)OC1(C(=O)CSC(=O)CC(C)(C)C)C(C)CC2C3CCC4=CC(=O)C=CC4(C)C3(F)C(O)CC21C (stereo not shown) [Ex. 14]"
  test-result: "0.33 mg/pellet"
- compound: "CC(=O)OC1(C(=O)CSC(C)=O)C(C)CC2C3CCC4=CC(=O)C=CC4(C)C3(F)C(O)CC21C (stereo not shown) [Ex. 8]"
  test-result: "1.20 mg/pellet"
- compound: "CCCCC(=O)O[C@]1(C(=O)CSC(C)=O)CC[C@H]2[C@@H]3C[C@H](C)C4=CC(=O)C=C[C@]4(C)[C@H]3[C@@H](O)C[C@@]21C [Ex. 7]"
  test-result: "> 1 mg/pellet"
- compound: "CCCCC(=O)OC1(C(=O)CSC(C)=O)C(C)CC2C3CCC4=CC(=O)C=CC4(C)C3(Cl)C(O)CC21C (stereo not shown) [Ex. 17]"
  test-result: "> 1 mg/pellet"

List ED50 (50% decrease in weight of the thymuses) for every entry below, keeping the order given.
1. CCCCC(=O)OC1(C(=O)CSC(C)=O)C(C)CC2C3CCC4=CC(=O)C=CC4(C)C3(F)C(O)CC21C (stereo not shown) [Ex. 13]
2. CCCCC(=O)OC1(C(=O)CSC(=O)CCCC)C(C)CC2C3CCC4=CC(=O)C=CC4(C)C3(Cl)C(O)CC21C (stereo not shown) [Ex. 18]

["0.8 mg/pellet", "> 1 mg/pellet"]

====

Test system: thymus
Assay: Systemic activity after local administration: effect on the weight of the thymus
Assay type: in vivo, male Sprague-Dawley I.O.P.S. rats
Conditions: rat, in vivo, 8640 min
For each record, write down the corresponding ED50 (50% decrease in weight of the thymuses).
Give bare numbers, in mg/pellet.

- molecule: "CCC(=O)OC1(C(=O)CSC(=O)CC)C(C)CC2C3CCC4=CC(=O)C=CC4(C)C3(Cl)C(O)CC21C (stereo not shown)"
  test-result: 2.4
- molecule: "CCC(=O)OC1(C(=O)CSC(C)=O)C(C)CC2C3CCC4=CC(=O)C=CC4(C)C3(F)C(O)CC21C (stereo not shown)"
  test-result: 0.25

Any idea what its ED50 (50% decrease in weight of the thymuses) is? The molecule is CCC(=O)OC1(C(=O)CSC(=O)CC)C(C)CC2C3CCC4=CC(=O)C=CC4(C)C3(F)C(O)CC21C (stereo not shown)
0.46

====

Kindly state R 3 (relative activity on weight gain compared with D.P.B.) for each of the entries shown.
Experiment: Systemic activity after local administration: effect on weight gain
Type: in vivo, male Sprague-Dawley I.O.P.S. rats
Details: rat, in vivo, 8640 min

- compound: "CCC(=O)OC1(C(=O)CSC(C)=O)C(C)CC2C3CCC4=CC(=O)C=CC4(C)C3(F)C(O)CC21C (stereo not shown)"
  test-result: "< 0.8"
- compound: "CC(=O)OC1(C(=O)CSC(=O)CC(C)(C)C)C(C)CC2C3CCC4=CC(=O)C=CC4(C)C3(F)C(O)CC21C (stereo not shown)"
  test-result: 53

Provide reported R 3 (relative activity on weight gain compared with D.P.B.) for each item, in the same order as listed.
1. CCC(=O)OC1(C(=O)CSC(=O)CC)C(C)CC2C3CCC4=CC(=O)C=CC4(C)C3(Cl)C(O)CC21C (stereo not shown)
2. CC(=O)OC1(C(=O)CSC(C)=O)C(C)CC2C3CCC4=CC(=O)C=CC4(C)C3(F)C(O)CC21C (stereo not shown)
3. C=C1C[C@H]2[C@@H]3CCC4=CC(=O)C=C[C@]4(C)[C@H]3[C@@H](O)C[C@]2(C)[C@@]1(OC(=O)CC)C(=O)CSC(=O)CC
4. CCCC(=O)O[C@]1(C(=O)CSC(C)=O)CC[C@H]2[C@@H]3CCC4=CC(=O)C=C[C@]4(C)[C@H]3C(=O)C[C@@]21C
5. CCC(=O)OC1(C(=O)CSC(=O)CC)C(C)CC2C3CCC4=CC(=O)C=CC4(C)C3(F)C(O)CC21C (stereo not shown)
6. CCCCC(=O)SCC(=O)C1(OC(=O)CC)C(C)CC2C3CCC4=CC(=O)C=CC4(C)C3(Cl)C(O)CC21C (stereo not shown)

1. 1.42
2. 0.8
3. 53
4. < 0.16
5. 1
6. < 0.8

Would you mind listing R 3 (relative activity on weight gain compared with D.P.B.) for each of the following compounds?
1. CCCCC(=O)OC1(C(=O)CSC(C)=O)C(C)CC2C3CCC4=CC(=O)C=CC4(C)C3(Cl)C(O)CC21C (stereo not shown)
2. CCCCC(=O)OC1(C(=O)CSC(=O)CCCC)C(C)CC2C3CCC4=CC(=O)C=CC4(C)C3(F)C(O)CC21C (stereo not shown)
3. CCC(=O)O[C@]1(C(=O)CSC(=O)CC)CC[C@H]2[C@@H]3C[C@H](C)C4=CC(=O)C=C[C@]4(C)[C@H]3[C@@H](O)C[C@@]21C
4. CCCCC(=O)O[C@]1(C(=O)CSC(=O)CCCC)CC[C@H]2[C@@H]3CCC4=CC(=O)CC[C@]4(C)[C@H]3[C@@H](O)C[C@@]21C
5. CCCCC(=O)O[C@]1(C(=O)CSC(=O)C(C)(C)C)CC[C@H]2[C@@H]3CCC4=CC(=O)CC[C@]4(C)[C@H]3[C@@H](O)C[C@@]21C
6. CCC(=O)SCC(=O)C1(OC(C)=O)C(C)CC2C3CCC4=CC(=O)C=CC4(C)C3(F)C(O)CC21C (stereo not shown)

["< 0.8", "< 1", "< 0.8", "< 0.25", "< 0.24", 0.8]

====

Tested on: thymus
Experiment: Systemic activity after local administration: effect on the weight of the thymus
Assay type: in vivo, male Sprague-Dawley I.O.P.S. rats
Settings: rat, in vivo, 8640 min
Method: The pharmacological activity of the products described in the invention was tested in the rat using a technique similar to that described by C. A. Winter and C. C. Porter (J. Am. Pharm. Ass. 1957, 46, 9, pages 515-519). […] The pellets to be implanted weigh from 35 to 40 mg and are prepared from balls of dental cotton wool. Before being inserted, each pellet is weighed and impregnated with the precise quantity of the product which is to be studied, dissolved in 0.2 ml of chloroform. […]
# note: exactly 0.5 is not below, so it is label 0; use label 1 for R 2 (relative effect on thymus weight compared with D.P.B.) strictly under it

The examples below pair each entry with its known result.
- compound: "C=C1C[C@H]2[C@@H]3CCC4=CC(=O)C=C[C@]4(C)[C@H]3[C@@H](O)C[C@]2(C)[C@@]1(OC(=O)CC)C(=O)CSC(=O)CC"
  classification: "label 1"
- compound: "CC(=O)OC1(C(=O)CSC(=O)CC(C)(C)C)C(C)CC2C3CCC4=CC(=O)C=CC4(C)C3(F)C(O)CC21C (stereo not drawn)"
  classification: "label 0"
- compound: "CCC(=O)OC1(C(=O)CSC(=O)CC)C(C)CC2C3CCC4=CC(=O)C=CC4(C)C3(Cl)C(O)CC21C (stereo not drawn)"
  classification: "label 1"
- compound: "CCC(=O)OC1(C(=O)CSC(=O)CC)C(C)CC2C3CCC4=CC(=O)C=CC4(C)C3(F)C(O)CC21C (stereo not drawn)"
  classification: "label 0"
- compound: "CCCCC(=O)O[C@]1(C(=O)CSC(=O)C(C)(C)C)CC[C@H]2[C@@H]3CCC4=CC(=O)CC[C@]4(C)[C@H]3[C@@H](O)C[C@@]21C"
  classification: "label 1"
- compound: "CC(=O)OC1(C(=O)CSC(C)=O)C(C)CC2C3CCC4=CC(=O)C=CC4(C)C3(F)C(O)CC21C (stereo not drawn)"
  classification: "label 0"

Item `CC(=O)SCC(=O)[C@@]1(OC(=O)c2ccccc2)CC[C@H]2[C@@H]3C[C@H](C)C4=CC(=O)C=C[C@]4(C)[C@H]3[C@@H](O)C[C@@]21C` : R 2 (relative effect on thymus weight compared with D.P.B.) beneath 0.5, strictly?
label 1

# check: R 2 (relative effect on thymus weight compared with D.P.B.) < 0.5 for `CCCCC(=O)O[C@]1(C(=O)CSC(=O)CCCC)CC[C@H]2[C@@H]3CCC4=CC(=O)CC[C@]4(C)[C@H]3[C@@H](O)C[C@@]21C`
label 1

R 2 (relative effect on thymus weight compared with D.P.B.) strictly < 0.5 for this compound? `CCCC(=O)O[C@]1(C(=O)CSC(C)=O)CC[C@H]2[C@@H]3CCC4=CC(=O)C=C[C@]4(C)[C@H]3C(=O)C[C@@]21C`
label 1
